- Test system: NCI-H23 lung
value type: GI50

Consider the reported GI50 for these compounds:
# smiles string, GI50
data = [
    ("O=C(CCCn1c2c(sc3ncccc32)c(=O)n2nnc(-c3ccccc3)c12)NCCc1cnc[nH]1", "14.5 µM"),
    ("CCCNc1nc(N(C)O)nc(N(C)O)n1", "4.73 µM"),
    ("CCCCCCN(CCCCCC)CCCNc1nccc2ccccc12", "1.8 µM"),
    ("Fc1ccc(-c2nc(-c3nc4ccc(Cl)cc4[nH]3)cc3c2[nH]c2ccccc23)cc1", "3.66 µM"),
]

--- query ---
Task: Recorded GI50 of `O=S(=O)(NCCNc1nccc(-c2c(-c3cccc(O)c3)nc3sccn23)n1)c1ccc(F)cc1` , please.
Output: 11.1 µM

====

- System: UO-31 renal
- measurement protocol: NCI tumour cell line growth inhibition, 48 h
Measured TGI, listed per entry.

# compound, observed
records = [
    ("CCOC(=O)C(SCCO)C(C(=O)OCC)n1ccc(N)nc1=O (stereo not given)", "> 100 µM"),
    ("CCCCc1ccc(Nc2nc3c(ncn3C3OC(COC(C)=O)C(OC(C)=O)C3OC(C)=O)c(=O)[nH]2)cc1 (stereo not given)", "> 100 µM"),
    ("ON=C1CCCCC(=NO)CCCC1", "> 100 µM"),
    ("COc1c(OC(C)=O)cc2c(OC(C)=O)c1CC(C)CC(OC)C(O)C(C)/C=C(\\C)C(OC(N)=O)C(OC)/C=C\\C=C(/C)C(=O)N2 (stereo not given)", "> 100 µM"),
    ("C/C(=N/O)C1CC=C(S(=O)(=O)c2ccccc2)C1 (stereo not given)", "> 100 µM"),
    ("CCOC(=O)CC(=O)ON(C)C(=O)Cc1ccccc1", "> 100 µM"),
]

Task: Recorded TGI of C=CCN1CCC(OC(=O)C(O)(/C=C\CC)C2CCCC2)CC1 (stereo not given) , please.
Output: > 100 µM

Task: Recorded TGI of `CC1=NN(c2nc(N)nc(CS(C)(=O)=O)n2)C(C)(C)C1` , please.
Output: > 100 µM

Task: Recorded TGI of COC(=O)C(C(=O)C(=O)Nc1cccc(O)c1)c1nc2ccc(Cl)cc2[nH]c1=O (stereo not given) , please.
Output: > 100 µM

Task: Recorded TGI of `O=C1C2=C(C(=O)c3c(O)ccc(O)c31)N(c1ccc(N3CCOCC3)nc1)Cc1ccccc1O2` , please.
Output: 0.429 µM

====

- System: MDA-MB-231 breast
- measurement protocol: NCI tumour cell line growth inhibition, 48 h
value type: TGI

Consider the reported TGI for these molecules:
# molecule, observed
records = [
    ("CCCNc1nc(N(C)O)nc(N(C)O)n1", "> 100 µM"),
    ("C=CCOC(=O)CCCCCCCCCCCCCCCOC(=O)C1=C(CCC[C@@H](C)O[Si](C)(C)C(C)(C)C)N=C(N)N2[C@H](CC3(CC/C=C\\[C@H](CC)O[Si](C(C)C)(C(C)C)C(C)C)OCCO3)CC[C@@H]12", "> 100 µM"),
    ("CCCS(=O)(=O)O", "> 100 µM"),
    ("N#Cc1ccc(Oc2nccc(-c3c(-c4ccc(F)cc4)ncn3C3CCNCC3)n2)cc1", "> 25 µM"),
    ("COc1cc(/C=C2\\C(=O)N(c3cccc(Cl)c3)C(c3ccccc3)S2(=O)=O)cc(OC)c1OC (centres undefined)", "> 100 µM"),
]

Task: Recorded TGI of `O=S(=O)(NCCNc1nccc(-c2c(-c3cccc(O)c3)nc3sccn23)n1)c1ccc(F)cc1` , please.
Output: 44.8 µM

Task: Recorded TGI of C=CCN1C(=O)/C(=c2\sc3n(c2=O)C2C(NN=3)N(CC)C(=O)N2CC)c2ccccc21 (centres undefined) , please.
Output: 7.96 µM

Task: Recorded TGI of `O=C(CCCn1c2c(sc3ncccc32)c(=O)n2nnc(-c3ccccc3)c12)NCCc1cnc[nH]1` , please.
Output: 34.6 µM

Task: Recorded TGI of `Cc1cccc(CN(C)c2ccc(CO)c(Cl)c2)c1` , please.
Output: > 86.2 µM

====

- Test system: SF-268 CNS
- measurement protocol: NCI tumour cell line growth inhibition, 48 h
value type: TGI

# compound, system under test, TGI
measured = [
    ("Cc1c2ccccc2c(C)c2c3c(ccc12)C(=O)C=CC3=O", "SF-268 CNS", "43.1 µM"),
    ("CCOC(=O)CC(=O)ON(C)C(=O)Cc1ccccc1", "SF-268 CNS", "> 100 µM"),
    ("Fc1ccc(-c2nc(-c3nc4ccc(Cl)cc4[nH]3)cc3c2[nH]c2ccccc23)cc1", "SF-268 CNS", "17.7 µM"),
    ("NC(CCCCCP(=O)(O)O)C(=O)O (centres undefined)", "SF-268 CNS", "> 100 µM"),
    ("CCOC(=O)C(Cc1ccc2c(c1)CCC2)(Cc1ccc2c(c1)CCC2)C(=O)OCC", "SF-268 CNS", "> 100 µM"),
    ("COc1ccc(/C=C2/C(=O)N(C(=O)c3ccccc3O)N=C2C)cc1OC", "SF-268 CNS", "> 100 µM"),
    ("CCCNc1nc(N(C)O)nc(N(C)O)n1", "SF-268 CNS", "> 56.6 µM"),
    ("CC(=O)NNc1nc(C)c(C(=O)NNC(=O)C(=O)Nc2ccc(C)c(C)c2)s1", "SF-268 CNS", "> 100 µM"),
]

Task: Recorded TGI of `Cc1csc2c(P(=O)(OC(C)C)OC(C)C)c(-c3ccccc3)cn12` , please.
Output: 32 µM

====

Measured TGI, listed per entry.
- Tested on: UO-31 renal
- measurement protocol: NCI tumour cell line growth inhibition, 48 h

Consider the reported TGI for these compounds:
# compound, TGI
data = [
    ("CCN(CC)CCN1c2ccccc2Sc2ccc3ccccc3c21", "19.1 µM"),
    ("O=C(CC(=O)N1N=C(n2ccc3ccccc32)CC1c1ccccc1)Nc1cccc(Cl)c1 (configuration not stated)", "> 100 µM"),
    ("NNC(N)=Nc1cccc2ccccc12", "> 100 µM"),
    ("N/C(=N\\O)c1ncc(-c2ccc(C(F)(F)F)cc2)c(NC2CCCCCC2)n1", "10.9 µM"),
    ("O=C1CCc2c3c(c4c([nH]c5ccccc54)c2CC1)C(=O)NC3=O", "14.7 µM"),
]

Task: Recorded TGI of N#CC12COC3(CCCCC3C1(C#N)C#N)OC2=N (configuration not stated) , please.
Output: 30.6 µM

Task: Recorded TGI of `Oc1c(C(O)(c2ccccc2)c2ccc3ccccc3c2O)ccc2ccccc12` , please.
Output: 24.7 µM

Task: Recorded TGI of `COc1ccc(/C=C/C(=O)c2sc(N)nc2C)cc1` , please.
Output: > 100 µM

Task: Recorded TGI of `CN1CCc2c(sc3nc(Nc4ccccc4)n(N)c(=O)c23)C1` , please.
Output: > 100 µM

Task: Recorded TGI of NC(CCCCCP(=O)(O)O)C(=O)O (configuration not stated) , please.
Output: > 100 µM

Task: Recorded TGI of `CN1CN(c2ccccc2)C2(CCNCC2)C1=O` , please.
Output: > 100 µM

Task: Recorded TGI of `CCOC(=O)/C(C(=S)NC)=C(/N)N1CCCC1` , please.
Output: > 100 µM

Task: Recorded TGI of `c1cncc(CNc2ccccc2-c2nnc(Nc3ccc4c(c3)OCO4)o2)c1` , please.
Output: > 100 µM

Task: Recorded TGI of C=C1C(=O)OC2CCCCC3OC3C12 (configuration not stated) , please.
Output: 28.8 µM

====

- Tested on: MOLT-4 leukemia
- measurement protocol: NCI tumour cell line growth inhibition, 48 h
value type: TGI

Consider the reported TGI for these molecules:
# molecule, TGI
data = [
    ("Fc1ccc(-c2nc(-c3nc4ccc(Cl)cc4[nH]3)cc3c2[nH]c2ccccc23)cc1", "8.37 µM"),
    ("O=C(NC(=O)c1cn(CCN2CCNCC2)c(=O)[nH]c1=O)OCc1ccccc1", "> 100 µM"),
    ("CCCCCCN(CCCCCC)CCCNc1nccc2ccccc12", "7.71 µM"),
    ("CCOc1ccccc1NC(=O)C(=O)CC(=O)C1=C(C)Nc2ccccc2S1", "> 69.5 µM"),
    ("Cc1nn2c(N)cc(=O)nc2nc1/C=C/c1ccc(N(C)C)cc1", "> 100 µM"),
    ("C/C(CC(O)(C(F)(F)F)C(F)(F)F)=N\\N", "> 10 µM"),
    ("COc1cccc(Nc2nc(NNC(=O)Cc3ccccc3)nc(NNC(=O)c3ccncc3)n2)c1", "> 100 µM"),
    ("OC(c1ccccc1)(c1ccccc1)c1ccccn1", "> 100 µM"),
    ("COc1ccc2nc(-c3ccc(OC(=O)N(C)C)cc3)cn2c1", "> 100 µM"),
    ("COC(=O)C12CCC(C(=O)OC)(Cc3c(c4ccccc4n3S(=O)(=O)c3ccccc3)C1)C2=O (configuration not stated)", "> 100 µM"),
]

Task: Recorded TGI of `Cc1ccc(SSCCCS(=O)O)cc1` , please.
Output: 50.6 µM

Task: Recorded TGI of `O=C1CCCCC/C=C2/CC[C@H](Sc3ccccc3)[C@@H]12` , please.
Output: > 100 µM

Hey, just so you know, these numbers are from PubChem BioAssay (NCI).
